Cited source for all entries: patent US20220127267A1

Listing: AC50 of selected compounds
# measurementTarget: PK R510Q (Homo sapiens, UniProt P30613, R510Q)
# Sequence (P30613 whole entry R510Q): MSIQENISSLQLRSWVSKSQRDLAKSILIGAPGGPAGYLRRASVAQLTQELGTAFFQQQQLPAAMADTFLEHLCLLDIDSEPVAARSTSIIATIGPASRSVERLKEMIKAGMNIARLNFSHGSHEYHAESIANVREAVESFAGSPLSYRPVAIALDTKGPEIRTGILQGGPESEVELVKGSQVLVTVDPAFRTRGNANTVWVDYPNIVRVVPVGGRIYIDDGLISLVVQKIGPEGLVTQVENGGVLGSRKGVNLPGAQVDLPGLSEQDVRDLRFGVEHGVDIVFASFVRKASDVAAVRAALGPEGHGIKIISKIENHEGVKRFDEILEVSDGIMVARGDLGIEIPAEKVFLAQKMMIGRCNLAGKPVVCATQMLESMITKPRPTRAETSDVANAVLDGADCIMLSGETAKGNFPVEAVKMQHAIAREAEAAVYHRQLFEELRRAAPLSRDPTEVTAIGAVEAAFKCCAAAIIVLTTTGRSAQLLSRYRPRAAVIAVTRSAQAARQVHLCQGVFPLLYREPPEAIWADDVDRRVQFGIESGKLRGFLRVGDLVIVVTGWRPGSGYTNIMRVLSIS
# testName: PKR Mutant Assay (R510Q), LDH-coupled, absorbance 340 nm
# Format: biochemical
# experimentalSetup: mutant PKR R510Q enzyme activation

Cc1c2c(=O)n(Cc3ccn(C)n3)ncc2n2cc(Cc3cc[nH]n3)sc12    < 300 nM

Let us examine a further case.
For reference, reported AC50 for Cn1c2cc(Cc3cn[nH]c3)sc2c2cnn(Cc3cccc4[nH]ncc34)c(=O)c21 stands at < 300 nM

* * *

# measurementTarget: PK R510Q (Homo sapiens, UniProt P30613, R510Q)
# testName: PKR Mutant Assay (R510Q), LDH-coupled, absorbance 340 nm
# Type: biochemical
# experimentalSetup: mutant PKR R510Q enzyme activation
measure: AC50

Sample records with AC50:
COc1cccc(Cn2ncc3c4cccnc4n(C)c3c2=O)c1    301 to 800 nM
COc1cccc(Cn2ncc3c4ccc(Cc5ccccc5)cc4n(C)c3c2=O)c1    301 to 800 nM

Item Cn1c2ccc(S(=O)(=O)c3ccccc3)cc2c2cnn(Cc3cccc(C(N)=O)c3)c(=O)c21 was tested on PK R510Q (Homo sapiens, UniProt P30613, R510Q); the reported AC50 is < 300 nM

Item Cn1cc(S(=O)(=O)c2ccc3c(c2)c2cnn(Cc4cccc(C(N)=O)c4)c(=O)c2n3C)cn1 was tested on PK R510Q (Homo sapiens, UniProt P30613, R510Q); the reported AC50 is < 300 nM

Item COc1cccc(Cn2ncc3c4sc(Cc5ccccc5)cc4n(C)c3c2=O)c1 was tested on PK R510Q (Homo sapiens, UniProt P30613, R510Q); the reported AC50 is < 300 nM
